B1: tRNA (parent)
chain: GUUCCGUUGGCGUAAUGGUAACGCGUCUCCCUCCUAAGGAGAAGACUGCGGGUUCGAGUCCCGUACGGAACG

# Variants of: B1
# methodDescription: yeast fitness relative to wild type (ratio to wild type); higher = fitter; tRNA-Arg(CCU), competitive growth, 37 C, YPD
Fewer inactive variants are shown than the library holds.
measuredProperty: yeast fitness

Illustrative cases are given below, each with its answer.
residuestring="GUACCGUUGGCGUAAUGGUAACGCGUCUCGCUUCUAAGGAGAAGACUGCGGGUUUGAGUCCCGUACGGAACG [U3A C30G C33U C55U]" result="≤ 0.5"
residuestring="GUUCCGUACGCGUAAUGGUAACGCGUCUCCCUCCUAAAGCGAAGACUGCGGGUUCGAGCCCCGUACGGAACG [U8A G9C G38A A40C U59C]" result=0.638
residuestring="GUUUCGUUGGCGUAAUGGUAACGCGUCUCCCUCCUAAGGAGAAGACUGUGGGUUCGAGUCCCGUACGGAACG [C4U C49U]" result=0.989

Hey, quick one: what's yeast fitness for each of these?
1. GUUCCGUUGGCGUAAUGGUAACGGGACUCCCUCCUAAGGACAAGACUGCGGGUUCGAGUCCCGUAUGGAACG [C24G U26A G41C C66U]
2. GUUCCGUCGGUGUAAUGGUAACGCGUCUACCUCCUAAGGAGAAGACUGCGGGUUCGAGUCCCGUACGGAACG [U8C C11U C29A]

1: 0.608; 2: ≤ 0.5

Batch request: yeast fitness for each of the following variants.
1. GUUCCGUUGGCGUACUGGUAACGCCUCUUCCUCCCAAGGAGAUGACUGCGGGUUCGAGUCCCGUACCGAACG [A15C G25C C29U U35C A43U G67C]
2. GUUCCGUUAGCCUAAUGGUAACGCGUCUCCCUCCUAAGGAGAAGACUGCGGGUUCGAGUCCCGUGCCGGACG [G9A G12C A65G G67C A69G]
3. GUUCCGUUGGCGUAAUGGUAACGCGUCUCCAUCCUAAGGAGGAGACUGGGGGUUCGAGUCCUGUACGGAACG [C31A A42G C49G C62U]
4. GUUCCGUUGGCGUAAUGAUAUCGCGUCUCCCUCCUAUGGAGUAGAAUGCGGGUUCGACUCCCGAACGGAACG [G18A A21U A37U A42U C46A G58C U64A]
5. GUUCCGUAGGCGUAAUGCUAACGAGUCUCCCCCCUAAGGAGAAGACUGCGGGUUCGAGUCCCGUACGGAUCG [U8A G18C C24A U32C A70U]
6. GUUCCGUUAGUGUAAUGGUAACGCGUCUCCCUCCUAAGGAGAAGACUGAGGGUUCGAGUCCCGUACUGAACG [G9A C11U C49A G67U]
7. GUUCCGUUGGGGUAAUGGUAAGGCGUCUCCCUCCUAAGGAGAAGCCUGCGGGUUCGAGUCCCGUACGGAACG [C11G C22G A45C]
8. GUUCAGUUGGCGUAAUGGUAAUGCGUCUCCCUCCUAAGAAGAAGCCUGCGGGUUCGAGUCCCGUACGGAACG [C5A C22U G39A A45C]

["≤ 0.5", "≤ 0.5", "≤ 0.5", "≤ 0.5", "≤ 0.5", "≤ 0.5", "≤ 0.5", "≤ 0.5"]

Record request: yeast fitness value, item GUUCCGUUGGCGUUAUGGUAACGCGUCUCCCUCCUAAGGAGAAGCCUGUGGGUUCGAGUCCCGUCCGGAACG [A14U A45C C49U A65C]
≤ 0.5
